Test system: P. falciparum stage V gametocytes
Design: BacTiter-Glo ATP luminescence viability of purified stage V gametocytes in 384-well plates, per cent inhibition versus DMSO
Conditions: 48 h, 5 µM; inhibitor
Hit rate of the full screen: of about 13,000 compounds, about 3,200 (25%) showed an effect of 50% or more. Some of the results follow.
Assign Yes whenever % Inhibition does not fall below 50%; assign No whenever it does.

INPUT: Can `CCCc1cc(Cc2cnc(N)nc2N)cc(CCC)c1OCCCCC(=O)O` be said to have % Inhibition at or above 50%?
OUTPUT: No

INPUT: Let us now turn to `COC(=O)c1cc(C(=O)CN(Cc2ccccc2)C(C)C)ccc1O`
OUTPUT: No

INPUT: Let us now turn to `Cc1[nH]nc2cc(Nc3ccnc(Nc4ccc(CN5CCOCC5)cc4)n3)ccc12`
OUTPUT: No

INPUT: Let us now turn to `Cc1cc(=O)[nH]c(NC#N)n1`
OUTPUT: No

INPUT: Let us now turn to `O=C(Cn1c(CCc2cccc(F)c2F)nc(=O)c2cccnc21)N(Cc1ccc(-c2ccc(C(F)(F)F)cc2)cc1)C1CCN(C2CCOCC2)CC1`
OUTPUT: Yes
